Provide the reported residual activity of each item.
Biological target: UniProt:Q9P0L2
Sequence (Q9P0L2 whole entry, looked up): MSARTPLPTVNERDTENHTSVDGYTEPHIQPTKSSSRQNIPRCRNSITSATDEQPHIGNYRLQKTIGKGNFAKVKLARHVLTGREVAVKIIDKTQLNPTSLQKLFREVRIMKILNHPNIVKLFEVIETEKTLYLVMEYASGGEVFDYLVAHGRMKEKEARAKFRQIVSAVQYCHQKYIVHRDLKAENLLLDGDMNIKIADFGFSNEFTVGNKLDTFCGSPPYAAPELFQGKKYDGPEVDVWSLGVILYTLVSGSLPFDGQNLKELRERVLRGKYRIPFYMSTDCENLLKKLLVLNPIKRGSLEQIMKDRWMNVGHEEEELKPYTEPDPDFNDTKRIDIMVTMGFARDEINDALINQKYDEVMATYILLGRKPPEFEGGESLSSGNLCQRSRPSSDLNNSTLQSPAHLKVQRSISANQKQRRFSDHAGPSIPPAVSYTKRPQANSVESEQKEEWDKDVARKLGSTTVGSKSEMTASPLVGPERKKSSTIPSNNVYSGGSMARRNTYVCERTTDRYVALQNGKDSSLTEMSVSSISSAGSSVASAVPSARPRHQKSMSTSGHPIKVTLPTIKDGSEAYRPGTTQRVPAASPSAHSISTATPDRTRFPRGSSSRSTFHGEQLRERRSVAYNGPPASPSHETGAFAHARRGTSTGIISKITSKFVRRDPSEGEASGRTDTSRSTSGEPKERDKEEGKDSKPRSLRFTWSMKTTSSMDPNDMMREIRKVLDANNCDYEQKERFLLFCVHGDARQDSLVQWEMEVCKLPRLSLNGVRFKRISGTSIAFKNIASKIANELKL
Assay: radiometric filter-binding kinase assay, Kinase HotSpot
Conditions: compound 0.5 µM; ATP 10 µM
Please answer using a numeric value trailed by its unit.

Input line: What residual activity appears in the records for this molecule with UniProt:Q9P0L2? `O=C1Nc2cc(Br)ccc2/C1=C1/Nc2ccccc2/C1=N\O`
Output line: 64.2%

Input line: Now the same for `Nc1nc(Nc2ccc(S(N)(=O)=O)cc2)nn1C(=S)Nc1c(F)cccc1F`
Output line: 2.68%

Input line: Now the same for `O=C1Nc2ccccc2/C1=C\c1c(Cl)[nH]c2ccccc12`
Output line: 96%

Input line: Now the same for `Oc1ccc(-c2nc(-c3ccc(F)cc3)c(-c3ccncc3)[nH]2)cc1`
Output line: 101%

Input line: Now the same for CSc1nc(-c2ccc(F)cc2)c(-c2ccnc(NC(C)c3ccccc3)c2)[nH]1 (stereo not given)
Output line: 95.3%

----------
Biological target: FLT3 (human) (UniProt P36888)
Sequence (P36888 whole entry, looked up): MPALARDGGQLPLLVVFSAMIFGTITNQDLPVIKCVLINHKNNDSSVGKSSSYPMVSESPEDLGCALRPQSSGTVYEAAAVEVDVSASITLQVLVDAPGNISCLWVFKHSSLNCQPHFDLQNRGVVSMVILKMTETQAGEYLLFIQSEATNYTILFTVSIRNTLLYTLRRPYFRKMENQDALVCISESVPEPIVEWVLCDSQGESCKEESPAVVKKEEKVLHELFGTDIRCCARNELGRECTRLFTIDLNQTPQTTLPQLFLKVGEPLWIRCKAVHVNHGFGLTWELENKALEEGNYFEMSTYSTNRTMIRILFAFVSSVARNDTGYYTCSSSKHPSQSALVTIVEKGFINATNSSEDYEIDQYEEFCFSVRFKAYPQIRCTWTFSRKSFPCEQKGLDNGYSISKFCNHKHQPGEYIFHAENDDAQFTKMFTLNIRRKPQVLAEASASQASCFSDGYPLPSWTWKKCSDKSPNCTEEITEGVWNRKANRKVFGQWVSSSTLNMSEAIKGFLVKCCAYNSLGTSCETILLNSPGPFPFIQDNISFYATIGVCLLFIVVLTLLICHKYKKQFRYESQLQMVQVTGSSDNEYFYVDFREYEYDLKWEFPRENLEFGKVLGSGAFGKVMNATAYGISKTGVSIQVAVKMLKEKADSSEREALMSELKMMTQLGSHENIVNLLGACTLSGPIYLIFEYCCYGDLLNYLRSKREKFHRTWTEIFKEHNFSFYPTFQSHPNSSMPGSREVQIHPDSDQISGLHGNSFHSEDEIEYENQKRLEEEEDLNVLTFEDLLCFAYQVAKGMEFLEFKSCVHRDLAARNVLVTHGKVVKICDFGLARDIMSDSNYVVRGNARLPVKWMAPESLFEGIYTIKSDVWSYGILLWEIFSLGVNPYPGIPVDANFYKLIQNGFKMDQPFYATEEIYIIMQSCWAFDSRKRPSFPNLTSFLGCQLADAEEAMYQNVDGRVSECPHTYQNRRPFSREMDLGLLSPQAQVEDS
Assay: radiometric filter-binding kinase assay, Kinase HotSpot
Conditions: compound 0.5 µM; ATP 10 µM
Provide the reported residual activity of each item.
Form entry: value (%) — number only.

Input line: What residual activity appears in the records for this compound with FLT3 (human) (UniProt P36888)? `O=C1Nc2ccccc2/C1=C\c1c(Cl)[nH]c2ccccc12`
Output line: 80.5

Input line: Now the same for `O=c1cc(-c2cccc3c2Sc2ccccc2S3)oc(N2CCOCC2)c1`
Output line: 98.4

Input line: Now the same for `COc1cc2nccc(Oc3ccc(NC(=S)NC(=O)c4ccccc4C)cc3)c2cc1OC`
Output line: 46.6

Input line: Now the same for `Nc1n[nH]c2nnc(-c3c(-c4ccccc4)nn4ccccc34)cc12`
Output line: 63.5

Input line: Now the same for CS(=O)c1ccc(-c2nc(-c3ccc(F)cc3)c(-c3ccncc3)[nH]2)cc1 (stereo not given)
Output line: 91.5

----------
Molecular target: ACVR1B (human) (UniProt P36896)
Assay: radiometric filter-binding kinase assay, Kinase HotSpot
Conditions: compound 0.5 µM; ATP 10 µM
Provide the reported residual activity of each item.

Input line: What residual activity appears in the records for this compound with ACVR1B (human) (UniProt P36896)? `CCCNC(=O)Nc1ccc(Oc2ncnc3cc(OC)c(OC)cc23)cc1Cl`
Output line: 99.6%

Input line: Now the same for `O=C(Nc1ccc(Cl)cc1)c1ccccc1NCc1ccncc1`
Output line: 95.8%

Input line: Now the same for `NC(=O)c1ccc(N(C(N)=O)c2c(F)cccc2F)nc1-c1ccc(F)cc1F`
Output line: 113%

----------
Biological target: AXL (human)
Experiment: radiometric filter-binding kinase assay, Kinase HotSpot
Settings: compound 0.5 µM; ATP 10 µM
Provide the reported residual activity of each item.
Form entry: value (%) — number only.

Input line: Can you share its residual activity? I mean this compound: CSc1nc(-c2ccc(F)cc2)c(-c2ccnc(NC(C)c3ccccc3)c2)[nH]1 (stereo not given)
Output line: 109

Input line: Now the same for `O=c1cc(N2CCNCC2)oc2c(-c3ccccc3)cccc12`
Output line: 117

Input line: Now the same for `O=C1Nc2ccccc2/C1=C\c1c(Cl)[nH]c2ccccc12`
Output line: 97.8

Input line: Now the same for `CCN1/C(=C/C(C)=O)Sc2ccc(OC)cc21`
Output line: 105

Input line: Now the same for `Cc1ccc(NC(=O)c2ccc(CN3CCN(C)CC3)cc2)cc1Nc1nc(-c2cccnc2)cs1`
Output line: 86.5

Input line: Now the same for `COc1ccc(-c2cnc3c(-c4ccsc4)cnn3c2)cc1`
Output line: 96.7

Input line: Now the same for `O=C(Nc1ccc(Cl)cc1)c1ccccc1NCc1ccncc1`
Output line: 98.1

Input line: Now the same for `O=c1cc(-c2cccc3c2Sc2ccccc2S3)oc(N2CCOCC2)c1`
Output line: 106

Input line: Now the same for O=C(NC(NC(=S)Nc1ccc(F)c([N+](=O)[O-])c1)C(Cl)(Cl)Cl)C(c1ccccc1)c1ccccc1 (stereo not given)
Output line: 112

Input line: Now the same for `Nc1nc(Nc2ccc(S(N)(=O)=O)cc2)nn1C(=O)c1c(F)cccc1F`
Output line: 94.2

----------
Target: MYLK (human) (UniProt Q15746)
Sequence (Q15746 whole entry, looked up): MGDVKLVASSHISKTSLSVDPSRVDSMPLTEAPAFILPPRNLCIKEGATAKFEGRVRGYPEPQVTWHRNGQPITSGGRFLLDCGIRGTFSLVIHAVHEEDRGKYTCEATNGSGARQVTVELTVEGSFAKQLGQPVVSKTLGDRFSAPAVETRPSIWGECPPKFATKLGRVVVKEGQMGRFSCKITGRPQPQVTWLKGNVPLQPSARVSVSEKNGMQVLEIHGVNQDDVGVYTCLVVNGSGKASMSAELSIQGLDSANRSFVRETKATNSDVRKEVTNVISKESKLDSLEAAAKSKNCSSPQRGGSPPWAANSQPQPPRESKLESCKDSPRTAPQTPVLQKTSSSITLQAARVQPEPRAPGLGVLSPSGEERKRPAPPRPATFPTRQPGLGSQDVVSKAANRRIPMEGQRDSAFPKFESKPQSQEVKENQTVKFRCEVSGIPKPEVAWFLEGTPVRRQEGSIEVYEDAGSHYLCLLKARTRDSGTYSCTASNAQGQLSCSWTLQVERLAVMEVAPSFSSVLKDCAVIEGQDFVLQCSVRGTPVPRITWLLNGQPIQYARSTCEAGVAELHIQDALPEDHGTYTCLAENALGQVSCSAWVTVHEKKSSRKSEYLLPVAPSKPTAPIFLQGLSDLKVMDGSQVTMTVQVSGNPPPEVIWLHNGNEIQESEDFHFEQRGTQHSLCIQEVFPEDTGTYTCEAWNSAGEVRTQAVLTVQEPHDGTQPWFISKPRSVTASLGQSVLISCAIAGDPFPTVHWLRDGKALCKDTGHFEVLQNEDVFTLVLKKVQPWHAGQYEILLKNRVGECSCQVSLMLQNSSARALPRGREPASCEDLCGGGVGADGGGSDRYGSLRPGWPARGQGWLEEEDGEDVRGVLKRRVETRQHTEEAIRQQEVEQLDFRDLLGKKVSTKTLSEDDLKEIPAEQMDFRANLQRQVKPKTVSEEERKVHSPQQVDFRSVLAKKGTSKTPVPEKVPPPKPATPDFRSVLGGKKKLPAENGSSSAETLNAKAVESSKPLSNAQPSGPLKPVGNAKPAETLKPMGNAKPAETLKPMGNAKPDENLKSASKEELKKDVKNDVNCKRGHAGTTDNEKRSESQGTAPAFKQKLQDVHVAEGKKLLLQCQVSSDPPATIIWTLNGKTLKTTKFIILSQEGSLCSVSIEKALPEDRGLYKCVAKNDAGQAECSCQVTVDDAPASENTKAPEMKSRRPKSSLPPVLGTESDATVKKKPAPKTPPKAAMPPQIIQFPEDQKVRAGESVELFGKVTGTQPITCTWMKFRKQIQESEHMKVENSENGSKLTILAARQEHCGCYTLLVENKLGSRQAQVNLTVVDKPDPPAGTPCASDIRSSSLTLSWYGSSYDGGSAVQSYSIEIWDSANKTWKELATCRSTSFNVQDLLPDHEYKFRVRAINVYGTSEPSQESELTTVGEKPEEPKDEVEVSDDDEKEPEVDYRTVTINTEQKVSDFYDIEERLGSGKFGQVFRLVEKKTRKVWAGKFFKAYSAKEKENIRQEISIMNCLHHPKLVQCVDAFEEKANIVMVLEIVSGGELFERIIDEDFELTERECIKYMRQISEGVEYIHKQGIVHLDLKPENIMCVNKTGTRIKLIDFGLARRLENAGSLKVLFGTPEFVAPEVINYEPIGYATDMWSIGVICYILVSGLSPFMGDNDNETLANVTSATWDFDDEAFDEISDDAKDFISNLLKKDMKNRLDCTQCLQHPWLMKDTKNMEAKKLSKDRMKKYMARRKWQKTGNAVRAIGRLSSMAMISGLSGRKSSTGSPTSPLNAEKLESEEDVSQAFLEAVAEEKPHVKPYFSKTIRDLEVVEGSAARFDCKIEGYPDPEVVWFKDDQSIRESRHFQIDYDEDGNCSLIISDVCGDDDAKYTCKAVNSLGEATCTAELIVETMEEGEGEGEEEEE
Assay: radiometric filter-binding kinase assay, Kinase HotSpot
Settings: compound 0.5 µM; ATP 10 µM
PARAMETER: residual activity (%)
Form entry: value (%) — number only.

Input line: Can you share its residual activity? I mean this compound: `CC(C)(C)c1nc2c3ccc(F)cc3c3c(=O)[nH]ccc3c2[nH]1`
Output line: 9.03

Input line: Now the same for `O=c1cc(-c2cccc3c2Sc2ccccc2S3)oc(N2CCOCC2)c1`
Output line: 102

Input line: Now the same for `O=C1Nc2cc(Br)ccc2/C1=C1/Nc2ccccc2/C1=N\O`
Output line: 45

----------
Target: DCLK2 (human) (UniProt Q8N568)
Sequence (Q8N568 whole entry, looked up): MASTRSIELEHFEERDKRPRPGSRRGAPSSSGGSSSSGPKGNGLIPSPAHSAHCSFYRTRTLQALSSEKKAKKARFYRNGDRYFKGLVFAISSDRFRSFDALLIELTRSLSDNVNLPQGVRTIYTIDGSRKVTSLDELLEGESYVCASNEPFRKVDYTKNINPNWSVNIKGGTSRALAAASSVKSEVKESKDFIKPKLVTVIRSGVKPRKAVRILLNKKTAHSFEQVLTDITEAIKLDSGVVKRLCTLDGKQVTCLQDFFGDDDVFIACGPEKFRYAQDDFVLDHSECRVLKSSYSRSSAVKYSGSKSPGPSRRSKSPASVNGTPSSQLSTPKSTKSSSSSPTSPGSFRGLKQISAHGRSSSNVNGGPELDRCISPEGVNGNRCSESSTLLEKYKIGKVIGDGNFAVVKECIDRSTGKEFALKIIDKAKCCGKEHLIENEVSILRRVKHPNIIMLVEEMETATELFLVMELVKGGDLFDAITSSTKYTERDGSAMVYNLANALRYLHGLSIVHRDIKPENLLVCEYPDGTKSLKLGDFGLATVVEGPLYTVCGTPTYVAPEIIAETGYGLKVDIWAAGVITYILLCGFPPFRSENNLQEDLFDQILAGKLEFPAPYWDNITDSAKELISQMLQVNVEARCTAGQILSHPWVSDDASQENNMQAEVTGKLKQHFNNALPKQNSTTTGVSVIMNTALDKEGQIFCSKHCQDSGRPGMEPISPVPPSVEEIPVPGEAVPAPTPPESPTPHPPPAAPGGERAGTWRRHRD
Assay: radiometric filter-binding kinase assay, Kinase HotSpot
Settings: compound 0.5 µM; ATP 10 µM
PARAMETER: residual activity (%)
Form entry: value (%) — number only.

Input line: Can you share its residual activity? I mean this compound: `O=C(Nc1ccc(Cl)cc1)c1ccccc1NCc1ccncc1`
Output line: 95.2

Input line: Now the same for `CC(C)n1cnc2c(Nc3cccc(Cl)c3)nc(NCCO)nc21`
Output line: 97.8

Input line: Now the same for `Nc1nc(Nc2ccc(S(N)(=O)=O)cc2)nn1C(=S)Nc1c(F)cccc1F`
Output line: 40.4

Input line: Now the same for `COc1cc2ncnc(Nc3ccc(F)c(Cl)c3)c2cc1OCCCN1CCOCC1`
Output line: 101

Input line: Now the same for CSc1nc(-c2ccc(F)cc2)c(-c2ccnc(NC(C)c3ccccc3)c2)[nH]1 (stereo not given)
Output line: 92.7

----------
Target: UniProtKB P41240
Sequence (P41240 whole entry, looked up): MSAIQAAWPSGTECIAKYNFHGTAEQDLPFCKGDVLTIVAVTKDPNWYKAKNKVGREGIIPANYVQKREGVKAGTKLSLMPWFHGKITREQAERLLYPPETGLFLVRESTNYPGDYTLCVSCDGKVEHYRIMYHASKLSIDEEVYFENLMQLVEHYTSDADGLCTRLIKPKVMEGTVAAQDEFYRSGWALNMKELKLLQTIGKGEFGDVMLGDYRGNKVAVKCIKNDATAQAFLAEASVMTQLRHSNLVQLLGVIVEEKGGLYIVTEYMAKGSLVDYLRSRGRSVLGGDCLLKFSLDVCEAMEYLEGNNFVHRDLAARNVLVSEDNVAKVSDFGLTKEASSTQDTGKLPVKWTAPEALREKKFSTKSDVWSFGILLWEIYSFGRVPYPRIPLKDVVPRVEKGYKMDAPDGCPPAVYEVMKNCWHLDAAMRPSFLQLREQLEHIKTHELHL
Assay: radiometric filter-binding kinase assay, Kinase HotSpot
Details: compound 0.5 µM; ATP 10 µM
Provide the reported residual activity of each item.
Please answer using a numeric value trailed by its unit.

Input line: Can you share its residual activity? I mean this compound: `CCN1/C(=C/C(C)=O)Sc2ccc(OC)cc21`
Output line: 104%

Input line: Now the same for `Cc1ccc(NC(=O)c2ccc(CN3CCN(C)CC3)cc2)cc1Nc1nc(-c2cccnc2)cs1`
Output line: 104%

Input line: Now the same for `O=c1cc(-c2cccc3c2Sc2ccccc2S3)oc(N2CCOCC2)c1`
Output line: 95.7%

Input line: Now the same for `CC(C)[C@H](CO)Nc1nc(Nc2cccc(Cl)c2)c2ncn(C(C)C)c2n1`
Output line: 98.1%

----------
Target: CSNK2A1 (human)
Assay: radiometric filter-binding kinase assay, Kinase HotSpot
Settings: compound 0.5 µM; ATP 10 µM
PARAMETER: residual activity
Please answer using a numeric value trailed by its unit.

Input line: Can you share its residual activity? I mean this compound: `COc1ccc(-c2cnc3c(-c4ccsc4)cnn3c2)cc1`
Output line: 101%

Input line: Now the same for `O=C1Nc2cc(Br)ccc2/C1=C1/Nc2ccccc2/C1=N\O`
Output line: 82.2%

Input line: Now the same for `Nc1nc(Nc2ccc(S(N)(=O)=O)cc2)nn1C(=S)Nc1c(F)cccc1F`
Output line: 76.6%

Input line: Now the same for `CC(C)(C)c1nc2c3ccc(F)cc3c3c(=O)[nH]ccc3c2[nH]1`
Output line: 82.9%

Input line: Now the same for `Clc1ccc(Nc2nnc(Cc3ccncc3)c3ccccc23)cc1`
Output line: 114%

Input line: Now the same for `CC(C)[C@H](CO)Nc1nc(Nc2cccc(Cl)c2)c2ncn(C(C)C)c2n1`
Output line: 101%

Input line: Now the same for `O=c1cc(N2CCNCC2)oc2c(-c3ccccc3)cccc12`
Output line: 89.9%

Input line: Now the same for CS(=O)c1ccc(-c2nc(-c3ccc(F)cc3)c(-c3ccncc3)[nH]2)cc1 (stereo unspecified)
Output line: 86.2%

Input line: Now the same for `Nc1n[nH]c2nnc(-c3c(-c4ccccc4)nn4ccccc34)cc12`
Output line: 94.8%

Input line: Now the same for `NC(=O)c1ccc(N(C(N)=O)c2c(F)cccc2F)nc1-c1ccc(F)cc1F`
Output line: 111%

Input line: Now the same for `CCCNC(=O)Nc1ccc(Oc2ncnc3cc(OC)c(OC)cc23)cc1Cl`
Output line: 105%

Input line: Now the same for `Cc1ccc(NC(=O)c2ccc(CN3CCN(C)CC3)cc2)cc1Nc1nc(-c2cccnc2)cs1`
Output line: 99.2%

Input line: Now the same for CSc1nc(-c2ccc(F)cc2)c(-c2ccnc(NC(C)c3ccccc3)c2)[nH]1 (stereo unspecified)
Output line: 100%

Input line: Now the same for `COc1cc2ncnc(Nc3ccc(F)c(Cl)c3)c2cc1OCCCN1CCOCC1`
Output line: 114%

Input line: Now the same for `O=c1cc(-c2cccc3c2Sc2ccccc2S3)oc(N2CCOCC2)c1`
Output line: 97.4%

Input line: Now the same for `Nc1nc(Nc2ccc(S(N)(=O)=O)cc2)nn1C(=O)c1c(F)cccc1F`
Output line: 104%

Input line: Now the same for `COc1cc2nccc(Oc3ccc(NC(=S)NC(=O)c4ccccc4C)cc3)c2cc1OC`
Output line: 98.9%

Input line: Now the same for `CCN1/C(=C/C(C)=O)Sc2ccc(OC)cc21`
Output line: 98.1%

Input line: Now the same for `Cc1cc2ncc(-c3ccccc3)nc2cc1C`
Output line: 102%

Input line: Now the same for O=C(NC(NC(=S)Nc1ccc(F)c([N+](=O)[O-])c1)C(Cl)(Cl)Cl)C(c1ccccc1)c1ccccc1 (stereo unspecified)
Output line: 95.4%

Input line: Now the same for `C#Cc1cccc(Nc2ncnc3cc(OCCOC)c(OCCOC)cc23)c1`
Output line: 78.9%

Input line: Now the same for `CC(C)n1cnc2c(Nc3cccc(Cl)c3)nc(NCCO)nc21`
Output line: 83.8%

Input line: Now the same for `O=C(Nc1ccc(Cl)cc1)c1ccccc1NCc1ccncc1`
Output line: 91.1%

Input line: Now the same for `Oc1ccc(-c2nc(-c3ccc(F)cc3)c(-c3ccncc3)[nH]2)cc1`
Output line: 92.4%

Input line: Now the same for `O=C1Cc2c([nH]c3ccc([N+](=O)[O-])cc23)-c2ccccc2N1`
Output line: 86.8%

Input line: Now the same for `O=C1Nc2ccccc2/C1=C\c1c(Cl)[nH]c2ccccc12`
Output line: 89.4%
